assay.comment: Binding affinity was determined against 5-hydroxytryptamine 1D receptor
measurement.label: Ki

• CCCCN1CCC(CNC(=O)c2c3n(c4ccccc24)CCCO3)CC1 = > 10 µM

----------
study.system: D(2) dopamine receptor (Homo sapiens, UniProt P14416)
Sequence (P14416 whole entry): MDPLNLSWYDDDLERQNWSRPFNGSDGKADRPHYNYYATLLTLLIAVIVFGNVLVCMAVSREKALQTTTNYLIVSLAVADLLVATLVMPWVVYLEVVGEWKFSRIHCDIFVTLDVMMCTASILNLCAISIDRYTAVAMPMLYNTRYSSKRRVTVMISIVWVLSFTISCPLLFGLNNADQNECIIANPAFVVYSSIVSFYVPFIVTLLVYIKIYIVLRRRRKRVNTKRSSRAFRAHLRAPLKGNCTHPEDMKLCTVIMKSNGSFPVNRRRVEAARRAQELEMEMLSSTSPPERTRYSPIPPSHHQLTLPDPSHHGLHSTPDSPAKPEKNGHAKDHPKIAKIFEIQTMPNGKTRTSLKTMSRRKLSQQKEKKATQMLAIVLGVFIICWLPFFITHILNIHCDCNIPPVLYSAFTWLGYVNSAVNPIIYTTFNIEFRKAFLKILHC
assay.comment: Binding affinity was determined by standard competitive displacement of [125I]iodosulpride using Dopamine receptor D2 cloned human receptors expressed in CHO cells
measurement.label: Ki

- CCCCN1CCC(CNC(=O)c2c3n(c4ccccc24)CCCO3)CC1: > 1000 nM

----------
The reader will find reported log10(IC50) values listed item by item below.
study.system: 5-hydroxytryptamine receptor 4 (Cavia porcellus, UniProt O70528)
Sequence (O70528 whole entry): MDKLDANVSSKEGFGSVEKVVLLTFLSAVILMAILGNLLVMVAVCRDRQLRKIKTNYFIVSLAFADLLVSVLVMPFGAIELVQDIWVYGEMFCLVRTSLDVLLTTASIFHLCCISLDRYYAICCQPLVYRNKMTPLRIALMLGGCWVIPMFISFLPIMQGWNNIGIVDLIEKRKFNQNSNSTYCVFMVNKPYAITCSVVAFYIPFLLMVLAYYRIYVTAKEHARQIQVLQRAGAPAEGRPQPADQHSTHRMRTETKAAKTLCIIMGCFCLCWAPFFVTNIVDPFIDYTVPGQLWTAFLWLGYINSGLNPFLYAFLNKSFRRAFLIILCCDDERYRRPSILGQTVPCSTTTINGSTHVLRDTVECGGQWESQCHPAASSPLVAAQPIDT
assay.comment: Ability to antagonize 5-HT-evoked contractions mediated through 5-hydroxytryptamine 4 receptor activation in the guinea pig distal colon LMMP
Type: tissue-based
measurement.label: log10(IC50) (log10 of the value in nM)

* CCCCN1CCC(CNC(=O)c2c3n(c4ccccc24)CCO3)CC1 | 1.20
* CCCCN1CCC(COC(=O)c2c(OC)[nH]c3ccccc23)CC1 | -1.00
* CCCCN1CCC(CNC(=O)c2c(OC)[nH]c3ccccc23)CC1 | 1.90
* CCCCN1CCC(CNC(=O)c2c3n(c4ccccc24)CCCCO3)CC1 | 0.90
* CCCCN1CCC(CNC(=O)c2c[nH]c3ccccc23)CC1 | 2.30

----------
study.system: 5-hydroxytryptamine receptor 2A (Homo sapiens)
Sequence (P28223 whole entry): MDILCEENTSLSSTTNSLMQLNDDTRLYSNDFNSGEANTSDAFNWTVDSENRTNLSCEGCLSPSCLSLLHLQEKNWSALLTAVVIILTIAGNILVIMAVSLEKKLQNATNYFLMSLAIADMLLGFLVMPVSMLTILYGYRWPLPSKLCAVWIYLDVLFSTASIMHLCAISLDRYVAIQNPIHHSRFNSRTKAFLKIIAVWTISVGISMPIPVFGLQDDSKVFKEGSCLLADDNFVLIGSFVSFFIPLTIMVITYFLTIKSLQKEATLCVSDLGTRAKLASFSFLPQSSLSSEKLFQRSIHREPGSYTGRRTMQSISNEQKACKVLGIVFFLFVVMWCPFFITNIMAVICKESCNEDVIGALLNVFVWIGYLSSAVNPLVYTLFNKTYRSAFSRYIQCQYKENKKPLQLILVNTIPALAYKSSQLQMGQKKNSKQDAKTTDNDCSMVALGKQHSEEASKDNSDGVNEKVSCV
measurement.label: Ki

* CCCCN1CCC(CNC(=O)c2c3n(c4ccccc24)CCCO3)CC1 | > 1000 nM

Reference for the values: ChEMBL document CHEMBL1128720
